Tested on: K-562 leukemia
procedureSummary: NCI tumour cell line growth inhibition, 48 h; in the data active = GI50 below about 0.43 µM; inactive = the rest
Tick one outcome: active, inactive

Solved cases below.
| compound | classification |
| --- | --- |
| O=[N+]([O-])c1ccc2scc3c4ccccc4nc-3c2c1 | active |
| Oc1c(Cl)cc(Cl)c2ccc(Cn3cc(-c4cc(F)cc(F)c4)nn3)nc12 | inactive |
| CC1SC(c2ccc(Cl)c(Cl)c2)N(NC(=O)C(O)c2ccccc2)C1=O (centres undefined) | inactive |

Here is the next item to consider.
Lookup: What outcome does the record of this test show for Cc1ccc(C)c(COc2cc(NC(=O)c3ccc4c(c3)OCO4)ccc2N(C)S(C)(=O)=O)c1 ?
Found: active

---

System: SNB-75 CNS
procedureSummary: NCI tumour cell line growth inhibition, 48 h
measuredQuantity: TGI

// known answers, use as guide
| compound | TGI |
| --- | --- |
| OC1(c2ccccc2)CCCCCCCCC(O)(c2ccccc2)CCCCCCCC1 (configuration not stated) | > 100 µM |
| COc1cccc2c1C(=O)c1c(O)c3c(c(O)c1C2=O)CC(O)(C(=O)CO)CC3OC1CC(N)C(I)C(C)O1 (configuration not stated) | > 100 µM |

Lookup: Need TGI of C/C(CC(=O)Nc1ccc(C)c(C)c1)=N\NC(N)=S , thanks.
Found: > 100 µM

Lookup: Need TGI of Clc1ccc(C2=NOC(C3CCCCC3)C2)cc1 (configuration not stated) , thanks.
Found: > 100 µM

Lookup: Need TGI of COc1cc(-c2nn(-c3ccc(NC(=O)NCCCNC(=O)c4ccccc4)cc3)cc2-c2ccncc2)ccc1Cl , thanks.
Found: > 100 µM

Lookup: Need TGI of CCOC(=O)N1C(=O)C2C3C=CC(C2C1=O)C1C2C(=O)N(C(=O)OCC)C(=O)C2C31 (configuration not stated) , thanks.
Found: > 100 µM

Lookup: Need TGI of CC(=O)Nc1ccc2c(C3=C(c4cn(C)c5ccccc45)C(=O)NC3=O)cn(C)c2c1 , thanks.
Found: > 25 µM

Lookup: Need TGI of CCC1([N+](=O)[O-])CC2C=CC1C2 (configuration not stated) , thanks.
Found: > 100 µM

---

System: HS 578T breast
procedureSummary: NCI tumour cell line growth inhibition, 48 h
Each item that follows carries a reported TGI.

// known answers, use as guide
| compound | assayedTarget | TGI |
| --- | --- | --- |
| COc1cc2c(c(OC)c1OC)-c1ccc(SC)c(=O)cc1[C@@H](OC(=O)c1ccncc1)CC2 | HS 578T breast | > 56.5 µM |
| COc1ccccc1-c1cc(=O)c2ccccc2n1C1CC1 | HS 578T breast | 25.7 µM |
| COC(=O)c1c2c(c3[nH]c4ccccc4c3c1C(=O)OC)C(=O)C1=C(C2=O)C2(Cl)C(Cl)C(Cl)C1(Cl)C2(Cl)Cl (configuration not stated) | HS 578T breast | 20.8 µM |
| CC(=O)Nc1ccc2c(C3=C(c4cn(C)c5ccccc45)C(=O)NC3=O)cn(C)c2c1 | HS 578T breast | > 25 µM |
| Oc1ccc2c(c1)OCC1c3ccccc3OC21 (configuration not stated) | HS 578T breast | > 100 µM |
| Fc1ccc(-c2nnc3sc(-c4cc(Cl)cc(Cl)c4)nn23)cc1Cl | HS 578T breast | > 100 µM |
| O=C(NC1CCC(Br)CC1)C1CCCC(S(=O)(=O)NC2CCCCC2)C1 (configuration not stated) | HS 578T breast | 87.2 µM |
| CCCCCCCC/C=C\CCCCCCC/C=C1/C[C@](/C=C/C(=O)OC)(CO)OC1=O | HS 578T breast | 9.29 µM |

Lookup: Need TGI of CC(C)(C)OC(=O)NCC(c1c[nH]c2ccc(Br)cc12)c1c[nH]c2ccc(Br)cc12 , thanks.
Found: 47.7 µM

Lookup: Need TGI of CCOC(=O)c1c(-c2ccccc2)oc(=O)c(Cc2cccc3cccnc23)c1-c1ccccc1 , thanks.
Found: > 10 µM

Lookup: Need TGI of COc1ccc(CN2C(=O)C(Cl)=C(Nc3cccc(O)c3)C2=O)cc1 , thanks.
Found: 51.7 µM

---

Tested on: KM12 colon
procedureSummary: NCI tumour cell line growth inhibition, 48 h; in the data active = GI50 below about 0.43 µM; inactive = the rest
Tick one outcome: active, inactive

Solved cases below.
| compound | classification |
| --- | --- |
| CCCCCc1c(C)[nH]c(/C=C2\N=C(c3ccc[nH]3)C=C2Oc2ccccc2)c1C | active |
| CC(C)=NNc1ncnc2c1ncn2C1OC(CO)C(O)C1O (configuration not stated) | active |
| CCN(CC)c1ccc2c(cc1=O)[C@@H](NC(C)=O)CCc1cc(OC)c(OC)c(OC)c1-2 | active |
| [N-]=[N+]=NCCCn1c2c(c3ccccc3c1=O)C(=O)c1cc(Br)ccc1-2 | inactive |

Lookup: What outcome does the record of this test show for Cn1c(-c2c(N)n(Cc3ccc(C(F)(F)F)cc3)c3nc(C#N)c(C#N)nc23)nc2ccccc21 ?
Found: inactive

Lookup: What outcome does the record of this test show for c1ccc(CSc2nnc3c4c5c(sc4nc(-c4cccnc4)n23)CCCCCC5)cc1 ?
Found: inactive

Lookup: What outcome does the record of this test show for O=c1[nH]c2ccc(N=Cc3c(O)[nH]c4ccccc34)cc2[nH]1 ?
Found: inactive

Lookup: What outcome does the record of this test show for COc1cc2c(cc1OCCCCCN1CCN(c3cc(=O)oc4ccccc34)CC1)N=C[C@@H]1CCCN1C2=O ?
Found: active

Lookup: What outcome does the record of this test show for COc1cc2c(cc1OCCCNC(=O)/C=C1/C[C@H]3C=Nc4cc(OCc5ccccc5)c(OC)cc4C(=O)N3C1)NC(=O)[C@@H]1CCCN1C2=O ?
Found: inactive

Lookup: What outcome does the record of this test show for CC(=O)OC1Oc2ccc(C)cc2-c2oc(=O)c(-c3cc4ccccc4oc3=O)cc21 (configuration not stated) ?
Found: inactive

Lookup: What outcome does the record of this test show for CCC[CH2][Sn]([CH2]CCC)([O]C(=O)c1ccc(C)c(N)c1)[O]C(=O)c1ccc(C)c(N)c1 ?
Found: inactive

Lookup: What outcome does the record of this test show for COc1cc2c(cc1OC)[Se]c1cc(OC)c(OC)cc1[Se]2 ?
Found: inactive

---

Each item that follows carries a reported TGI.
Tested on: MOLT-4 leukemia
procedureSummary: NCI tumour cell line growth inhibition, 48 h
*1 amine or outer side, *2 acyl side, *3 side chain or, on linkers, in order; H or OH if unused. Where a SMILES comes first, the peptide text is derived from it. Bridges are numbered along the chain shown (N, C = ends). [ ]: non-standard residue; d: D form. The star is where a group is joined. Phe(3,5-F2) = N[C@@H](Cc1cc(F)cc(F)c1)C(=O)O; Pro(4R-Me) = C[C@H]1CN[C@H](C(=O)O)C1; aThr = C[C@H](O)[C@H](N)C(=O)O; Pip = O=C(O)[C@@H]1CCCCN1; X10 = Fc1cc(C2CC2)ccc1N*; Abu = CC[C@H](N)C(=O)O; CO = O=C([*:1])[*:2]

| compound | result |
| --- | --- |
| COc1cc2c(cc1OC)[Se]c1cc(OC)c(OC)cc1[Se]2 | > 100 µM |

Lookup: Need TGI of CC[C@@H]1NC(=O)[C@@H]2CCCCN2C(=O)[C@@H]2CCCN2C(=O)[C@@H](NC(=O)[C@H](Cc2cc(F)cc(F)c2)NC(=O)Nc2ccc(C3CC3)cc2F)[C@H](C)OC(=O)[C@@H]2C[C@@H](C)CN2C1=O ({X10-CO}-[Phe(3,5-F2)][aThr]P[Pip][Abu][Pro(4R-Me)]; ester 2-C) , thanks.
Found: > 30 µM

Lookup: Need TGI of C=CCCC1CCCCC/C1=N\N(C)C (centres undefined) , thanks.
Found: > 100 µM

Lookup: Need TGI of O=c1[nH]c2ccc(N=Cc3c(O)[nH]c4ccccc34)cc2[nH]1 , thanks.
Found: > 25 µM

---

Test system: UACC-257 melanoma
procedureSummary: NCI tumour cell line growth inhibition, 48 h
measuredQuantity: TGI

| compound | result |
| --- | --- |
| COc1ccc(OC)c(NC(=O)c2c(Cl)c(Cl)c(Cl)c(Cl)c2-c2nc3ccccc3[nH]2)c1 | > 100 µM |
| CCc1nc(N)nc(N)c1-c1ccc(Cc2ccccc2)c([N+](=O)[O-])c1 | > 71 µM |
| CC(=O)OC1Oc2ccc(C)cc2-c2oc(=O)c(-c3cc4ccccc4oc3=O)cc21 (stereo not drawn) | 27.4 µM |
| Clc1ccc(C2ON=C(c3ccccc3)N2C23CC4CC(CC(C4)C2)C3)c(Cl)c1 (stereo not drawn) | > 10 µM |
| NC(Cc1c[nH]c2ccccc12)P(=O)(O)O (stereo not drawn) | > 100 µM |
| CCC[CH2][Sn]([CH2]CCC)([O]C(=O)c1ccc(C)c(N)c1)[O]C(=O)c1ccc(C)c(N)c1 | 1.62 µM |
| O=[N+]([O-])c1nccn1COCCI | > 100 µM |
| COc1cccc(CC(C)N)c1 (stereo not drawn) | > 100 µM |
| CC1=C(O)C(=O)C2C(=O)C1C(C)C2c1ccc(C)cc1 (stereo not drawn) | > 100 µM |
| COc1cc2c(cc1OC)[Se]c1cc(OC)c(OC)cc1[Se]2 | > 100 µM |

Lookup: Requested read-out TGI, target or system UACC-257 melanoma, entry COc1ccc2c(=O)c(-c3cc4c(cc3OC)OCO4)coc2c1
Found: > 100 µM

Lookup: Requested read-out TGI, target or system UACC-257 melanoma, entry COC(=O)c1ccc(NC(=O)c2cc3c(cc2Br)OCO3)o1
Found: > 100 µM

Lookup: Requested read-out TGI, target or system UACC-257 melanoma, entry O=C1Nc2ccccc2C1(c1c[nH]c2ccccc12)c1c[nH]c2ccccc12
Found: 16.6 µM

Lookup: Requested read-out TGI, target or system UACC-257 melanoma, entry CC(C)=NNc1ncnc2c1ncn2C1OC(CO)C(O)C1O (stereo not drawn)
Found: > 100 µM

Lookup: Requested read-out TGI, target or system UACC-257 melanoma, entry CC(=O)Oc1ccc2oc(=O)cc(C)c2c1
Found: > 100 µM
